Each recorded value in this set is attributed to patent US20250313625A1.

Overview of reported MFI at 20 nM across a group of binders:
target: T1, cyno LAG3, full length, stably expressed on 293F cells (cyno); experiment: FACS on 293F-cyno LAG3 cells, 20 nM antibody
T1 construct: whole, on cells
Reply with just the number (in MFI).

Consider the worked cases shown below.
| binder | test-readout | uom | quantitative-readout |
| --- | --- | --- | --- |
| Antibody 057 (antibody, V domains shown, mouse hybridoma antibody) VH: QVQLQQSGAELARPGASVKLSCKASGFSFTSYGINWVKQRTGQGLEWIGEIYPRSGNTYYNEKLKGEATLTADRSSSTAYMELRSLTSEDSAVYFCARGGTYDGYYYAMDYWGQGTSVTVSS VL: NIVLTQSPASLAVSLGQRATISCRASESVDNFGSSFMHWYQQKPGQAPKLLIYRASNLESGIPARFGGSGSGTDFTLTIDPVETDDVATYYCQQVNKDPRTFGGGTKLEIK | MFI at 20 nM | MFI | 83.4 |
| Antibody 029 (antibody, V domains shown, mouse hybridoma antibody) VH: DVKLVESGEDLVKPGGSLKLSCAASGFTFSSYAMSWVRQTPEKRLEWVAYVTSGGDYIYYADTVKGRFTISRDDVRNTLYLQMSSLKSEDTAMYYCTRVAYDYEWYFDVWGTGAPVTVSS VL: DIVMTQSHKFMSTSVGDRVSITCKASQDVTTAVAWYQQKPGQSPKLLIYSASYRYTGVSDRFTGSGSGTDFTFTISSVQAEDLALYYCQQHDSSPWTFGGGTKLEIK | MFI at 20 nM | MFI | 35.6 |
| Antibody 038 (antibody, V domains shown, mouse hybridoma antibody) VH: DVQVQESGPGLVKPSQSLSLTCSVTGYSITSGYYWNWIRQFPGNKLEWMGYISYDGSNEYNLSLKNRLSITRDTSKNQFFLKLNSVTTEDTATYYCAREEDGYYGGMDYWGQGTSVTVSS VL: DIVMTQSHKFMSASVGVRVSITCRASQDVDTAVAWYQQKPGQSPKLLIYWASTRHTGVPDRFTGSGSGTDFTLTISNVQSEDLADYFCQQYSSYPYTFGGGTKLEIK | MFI at 20 nM | MFI | 142 |
| Antibody 021 (antibody, V domains shown, mouse hybridoma antibody) VH: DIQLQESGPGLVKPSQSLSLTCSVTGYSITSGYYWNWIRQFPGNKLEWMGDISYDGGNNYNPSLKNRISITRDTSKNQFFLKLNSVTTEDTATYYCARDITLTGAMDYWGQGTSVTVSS VL: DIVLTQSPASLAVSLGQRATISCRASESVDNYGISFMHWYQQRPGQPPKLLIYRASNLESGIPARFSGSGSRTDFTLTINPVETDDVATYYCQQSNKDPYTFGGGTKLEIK | MFI at 20 nM | MFI | 105 |

Read the next record carefully.
Name the reported MFI at 20 nM value associated with the binder Antibody 027 (antibody, V domains shown, mouse hybridoma antibody) VH: EVKILQSGGGLVQPGGSLKLSCAASGIDFSRYWMSWVRRTPGKGLEWIGEINPDSSTINYAPSLKDKFIISRDNAKNTLYLQMSKVRSEDTALYYCARLGIIPTYHYGSSGYYYAMDYWGQGTSVTVSS VL: DVLMTQTPLSLPVSLGDRASISCRSSQTIVHGNGHTSLEWYLQKPGQSPQLLIYKVSNRFSGVPDRFSASGSGTDFTLTISRVEAEDLGVYYCFQVSHVPYTFGGGTKLEIK
132
